Data origin, for the record: ChEMBL document CHEMBL1144583

Species on record: Rattus norvegicus
Protocol: Effect on TAase activity assessed as activation of liver microsomal NADPH cytochrome P450 at 5 uM
Quantity kind: Activity (%)

Past entries and their recorded results:
CC(=O)Oc1ccc2c(C)cc(=O)oc2c1; 14.5
CC(=O)Oc1cc2c(=O)oc3c(OC(C)=O)c(OC(C)=O)cc4c(=O)oc(c1OC(C)=O)c2c34 [ELLAGIC ACID TETRAACETATE]; 16.1
CC(=O)Oc1cccc2oc3ccccc3c(=O)c12; 5.06
CC(=O)Oc1cc(OC(C)=O)c2c(=O)c(C(C)=O)c(C)oc2c1; 16.7

I: CC(=O)Oc1ccc2c(c1)OC(=O)CC2c1ccccc1 (stereo unspecified)
II: CC(=O)Oc1ccc2c(OC(C)=O)c(Cc3c(OC(C)=O)c4ccc(OC(C)=O)c(OC(C)=O)c4oc3=O)c(=O)oc2c1OC(C)=O
Request: Of I and II , which carries the smaller reported Activity figure? Answer with the label corresponding to your selection.
Result: I

1: CC(=O)Oc1ccc2c(=O)c(-c3ccccc3)coc2c1OC(C)=O
2: CC(=O)Oc1ccc2c(=O)c(-c3ccccc3)c(C)oc2c1
3: CC(=O)Oc1ccc(OC(C)=O)c2c(=O)c3ccccc3oc12
Request: hey, can you rank those compounds up there by Activity? biggest number first please The labels, placed in the requested order, form the answer.
Result: 3, 1, 2

I: CC(=O)Oc1ccc2c(=O)c(C(C)=O)c(C)oc2c1
II: CC(=O)Oc1ccc2c(C(C/C=C/C#CC(C)(C)C)S(=O)(=O)c3ccccc3)cc(=O)oc2c1 (stereo unspecified)
Request: Of I versus II , which is the one with smaller reported Activity? Your answer should be the label of the entry you select.
Result: II
(II: 7.6%, I: 15.1%)

---

Species on record: Rattus norvegicus
Protocol: Effect on TAase activity assessed as activation of liver microsomal NADPH cytochrome P450 at 5 uM
Quantity kind: Activity (%)

CC(=O)Oc1ccc2c(C)cc(=O)oc2c1OC(C)=O; 25.8

I: CC(=O)Oc1ccc2c(=O)cc(-c3ccccc3)oc2c1
II: CC(=O)Oc1ccc2c(=O)c(C(C)=O)c(C)oc2c1OC(C)=O
III: CC(=O)Oc1ccc2c(C(C/C=C/C#CC(C)(C)C)S(=O)(=O)c3ccccc3)cc(=O)oc2c1OC(C)=O (stereo unspecified)
Request: Sort low-to-high on Activity, please. Submit the labels in the order that the ranking request calls for.
Result: I, III, II
(I: 6.9%, III: 15.9%, II: 27.6%)

P: CCCCCCC(c1cc(=O)oc2cc(OC(C)=O)ccc12)S(=O)(=O)c1ccccc1 (stereo unspecified)
Q: CC(=O)Oc1cc(C(C)=O)c2c(C)cc(=O)oc2c1
Request: In the pair P and Q , the larger recorded Activity belongs to which? Identify your selection by its label.
Result: Q
(Q: 15.6%, P: 7.17%)

---

Organism: Rattus norvegicus
Protocol: Effect on TAase activity assessed as inhibition of GST in liver microsome at 50 uM
Assay type: microsomes
Quantity kind: inhibition (%)

a: CCCCCCC(c1cc(=O)oc2cc(OC(C)=O)ccc12)S(=O)(=O)c1ccccc1 (configuration not stated)
b: CC(=O)Oc1ccc(OC(C)=O)c2c(=O)c3ccccc3oc12
c: CC(=O)Oc1ccc2c(=O)c(C(C)=O)c(C)oc2c1
Request: Hey, quick one: sort these by inhibition, largest value first please. List the labels, following the order given in the request.
Result: b, c, a
(b: 12.7%, c: 6.03%, a: 3.96%)

---

Organism: Rattus norvegicus
Protocol: Inhibition of liver microsomal EROD at 25 uM
Quantity kind: inhibition (%)

Take a look at these entries with their results.
CC(=O)Oc1ccc2c(=O)c(C(C)=O)c(C)oc2c1; 31.5
CC(=O)Oc1ccc2c(C)cc(=O)oc2c1; 30.8
CC(=O)Oc1ccc2c(=O)cc(-c3ccccc3)oc2c1; 16.4

a: CC(=O)Oc1ccc2c(=O)c(-c3ccccc3)c(C)oc2c1
b: CC(=O)Oc1ccc(OC(C)=O)c2c(=O)c3ccccc3oc12
Request: Of a and b , which one carries the higher reported inhibition? Bench note: the answer is the label of the chosen record.
Result: b

---

Species: Rattus norvegicus
Protocol: Effect on TAase activity assessed as inhibition of GST in liver microsome at 50 uM
Format: microsomes
Quantity kind: inhibition (%)

CC(=O)Oc1cc(C(C)=O)c2c(C)cc(=O)oc2c1; 7.65
CC(=O)Oc1ccc2c(C)cc(=O)oc2c1; 7.1
CC(=O)Oc1ccc2c(c1)OC(=O)CC2c1ccccc1 (centres undefined); 3.31
CC(=O)Oc1ccc2c(=O)c(-c3ccccc3)coc2c1OC(C)=O; 6.89
CC(=O)Oc1cccc2oc3ccccc3c(=O)c12; 3.43
CC(=O)Oc1cc2c(=O)oc3c(OC(C)=O)c(OC(C)=O)cc4c(=O)oc(c1OC(C)=O)c2c34 [ELLAGIC ACID TETRAACETATE]; 10.1
CC(=O)Oc1cc(OC(C)=O)c2c(=O)c(C(C)=O)c(C)oc2c1; 6.68
CC(=O)Oc1ccc2c(C)cc(=O)oc2c1OC(C)=O; 15.2
CC(=O)Oc1ccc2c(=O)cc(-c3ccccc3)oc2c1; 3.6
CC(=O)Oc1ccc2c(C(C/C=C/C#CC(C)(C)C)S(=O)(=O)c3ccccc3)cc(=O)oc2c1OC(C)=O (centres undefined); 10.4

P: CC(=O)Oc1ccc2c(C(C/C=C/C#CC(C)(C)C)S(=O)(=O)c3ccccc3)cc(=O)oc2c1 (centres undefined)
Q: CC(=O)Oc1ccc2c(=O)c(C(C)=O)c(C)oc2c1OC(C)=O
Request: Please compare: P and Q . Report which one has the smaller inhibition value. State your choice using its label.
Result: P
(P: 4.01%, Q: 15.3%)

a: CC(=O)Oc1ccc2c(=O)c(-c3ccccc3)c(C)oc2c1
b: CC(=O)Oc1ccc2c(OC(C)=O)c(Cc3c(OC(C)=O)c4ccc(OC(C)=O)c(OC(C)=O)c4oc3=O)c(=O)oc2c1OC(C)=O
Request: Could you please tell me which of these two has the higher inhibition: a or b ? To answer, give the label that identifies your chosen option.
Result: b
(b: 10.1%, a: 3.1%)
